Target: MAPK ERK2 (human), P28482
Sequence (P28482 whole entry): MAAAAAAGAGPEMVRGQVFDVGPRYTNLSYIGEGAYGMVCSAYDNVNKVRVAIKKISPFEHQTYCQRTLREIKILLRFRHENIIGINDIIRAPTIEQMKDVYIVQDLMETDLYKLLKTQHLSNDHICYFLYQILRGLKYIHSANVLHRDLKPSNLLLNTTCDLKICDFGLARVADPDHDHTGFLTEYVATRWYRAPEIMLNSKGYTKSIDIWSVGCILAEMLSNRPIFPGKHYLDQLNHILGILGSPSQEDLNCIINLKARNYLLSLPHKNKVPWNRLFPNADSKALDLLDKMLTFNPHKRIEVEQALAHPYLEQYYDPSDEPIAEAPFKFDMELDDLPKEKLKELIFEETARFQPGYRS
Assay: FP
Conditions: modification not given
pKi: −log10 of the molar value.
pKi reference
outcome_measure: pKi

1. SKGKKRNPGLKIPK [MKK6]
4.19
2. QGKRKALKLNFANP [MKK4]
3.37
